# System: Corynebacterium pseudodiphtheriae
# protocol.details: Antibacterial preliminary screening CP;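 further: 0 is no inhibition and 3 matches the commercial antibiotic control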
# Format: cell-based
# experimental.parameters: score 0-3
Listed next: entries and their corresponding CP score.
measure: CP score

structure.as.smiles | test.result
CCc1nnc(-c2cc3ccccc3[nH]2)o1 | 0
c1ccc(-c2ccc(-c3nnc(-c4cc5ccccc5[nH]4)o3)cc2)cc1 | 0
COc1ccc(-c2nnc(-c3nc4ccccc4s3)o2)cc1 | 0
FC(F)(F)c1ccc(-c2nnc(-c3nc4ccccc4s3)o2)cc1 | 0
Clc1cccc(-c2nnc(-c3cc4ccccc4[nH]3)o2)c1 | 0

====

# tgt: Ec IspD (Escherichia coli, UniProt Q46893)
# Sequence (Q46893 whole entry): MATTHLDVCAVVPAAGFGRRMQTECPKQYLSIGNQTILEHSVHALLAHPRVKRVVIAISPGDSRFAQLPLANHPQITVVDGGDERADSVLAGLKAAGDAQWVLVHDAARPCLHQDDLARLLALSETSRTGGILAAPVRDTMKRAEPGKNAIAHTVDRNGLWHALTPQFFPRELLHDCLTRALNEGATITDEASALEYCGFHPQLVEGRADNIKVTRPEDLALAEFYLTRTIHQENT
# protocol.details: EnzChek enzymatic activity assay Ec IspD
# Assay type: biochemical
# experimental.parameters: EnzChek assay; read-out: Ec IspD IC50

compound | IC50 (µM)
C[CH2][Hg][S]c1ccccc1C(=O)[O-].[Na+] [thimerosal, reference compound] | 381
